soluble fraction (log2): recorded values
ASSAY INFO: soluble fraction after stress (log2 fold change); higher = more stays soluble; pooled small domains, quantitative proteomics
MEASUREMENT SETUP: stress: 50 degC

chain=HMEFLDLEIDVDATDGRLLAFLAAKGEVVSQTFNDTIITVRVRMPTGAMGQVHRSALAIRPA observed=-0.507
chain=HMLYETLKKGDQGTSVKTLQEKLKALGYLTGAADGKYGAGTETAVKSFQKAAGLTETGTADPETLSAVYAA observed=0.17
chain=HMIETIQVPRAFNDWHEQADKTKSVFEVYAEIEASENEKLIAWVRNNQNEFAKIWLGALIPELE observed=-1.39
chain=HMGKQPLYEQLVDLLRDRIENDMETGELLPSERKLAHHFGLSRTTVRLAMDRLETLGLITRVHGKDTFVAE observed=-1.17
chain=HMPLQKNRPKIKPQKVVFLFSVEWMWSPAHNRIDSYFINIKPSRYYLWNSFFDRHSFSDYWDFIGYTEN observed=-0.0868
chain=HMEIEETKKNSRTKIPENFDYKLINGLSNEIRAKLELIRPIDLLQASRIDGMTPAALTLVHLWIKKYSG observed=-0.338

INPUT: Fill in: soluble fraction (log2) of HMAIRLIKASREFNVGISTIVEFLEKKGHAIDSDPNSKIPDELYQLIEKEFQTEGSVKKAAKQI is ___
OUTPUT: -0.0914

INPUT: Fill in: soluble fraction (log2) of HMTQEHDESVNLGKRLLDQALSRFGTSYRQLKKSEIKRILQSSGASTFKYILHQIGLGNRVPLAIANLIV is ___
OUTPUT: -0.0734

INPUT: Fill in: soluble fraction (log2) of HMEYQSLVLDFLEQGDFNAEKLKDYQRAFAKQNGMQTLPSKSQILQAYFQLVEEKKINKNSDFELLLRKR is ___
OUTPUT: 0.0447

INPUT: Fill in: soluble fraction (log2) of HMDSVEYRVITGDDVNFRKGPSTDYASLGKLNKGYKVEYISETNSWSKVKYNGQTGYVYSKYVAQT is ___
OUTPUT: 0.0362

INPUT: Fill in: soluble fraction (log2) of HMVRTIKILGIKHNINLYYKNVKVPTMNVKNQTLEIILPNKYKKFQEEQILKVLTQKLYDKIAETEIEKIK is ___
OUTPUT: -0.465

INPUT: Fill in: soluble fraction (log2) of HMEYMKQRLYDIIELFKRSFSPSFSEEEKKKLENVLQDDFLRKAYEQLSDEVFIEEKFREFDGY is ___
OUTPUT: -1.73

INPUT: Fill in: soluble fraction (log2) of HMEQYFEDEELNDKFLEFLAMRKRVRKPVQTDRGMKMLLTSLHKLSGGDVGLMKQIIDQSLDNEWKKFVA is ___
OUTPUT: -0.673

INPUT: Fill in: soluble fraction (log2) of HMNEKEAEEAAEAQTEVPDVTGMAPAQAKNMLYQAGLSSEYRGEGETVSRQLPPAGETVNRGTKAVLYL is ___
OUTPUT: 0.0278

INPUT: Fill in: soluble fraction (log2) of HMEDEAVMQLPLSELKGLSPELLAILNGAGYEKLKDVLDLEREDIERIPGMTPERNEQLVAFLAELTE is ___
OUTPUT: 0.0689

INPUT: Fill in: soluble fraction (log2) of HMPAGWIPARIRLADYPQLRSLAWHVQGIDTLTPTEALDIYERNARHLDAQAMSAQEQDLLASLRLALS is ___
OUTPUT: -0.839

INPUT: Fill in: soluble fraction (log2) of HMEIHQVEFGGKVISFVLERKPVKNVNLHIKPDMTVMVSANEKVPLDFILGFVKQKAAWILKNIQFFEDV is ___
OUTPUT: -1.25

INPUT: Fill in: soluble fraction (log2) of HMNTFKNIFIQEGDLFNLKKNDNQIIFAKEGILINENKKIFRLLNGKIISTNNNRLIGFEFDKIDYNLSN is ___
OUTPUT: 0.489

INPUT: Fill in: soluble fraction (log2) of HMRVDLATEVHSVLRRMMSRPPTLQEIRADLDGEEPGRVHEALDALRAAFRGGRGPKNPYESLKRSLRRG is ___
OUTPUT: 0.0134

INPUT: Fill in: soluble fraction (log2) of HMINKDNLIEEILKFINTKIADISSNNPLFDIVAKPYISKVVTNNVSKLDKALSLIADDKGMVDADGLLT is ___
OUTPUT: -0.292

INPUT: Fill in: soluble fraction (log2) of HMIVSEYIIIGGDKKEYGPVSMGEVGEWVQGGRANGDSKIKKVGTEEWGRLRDFPEFSAYLS is ___
OUTPUT: -0.00369

INPUT: Fill in: soluble fraction (log2) of HMPTEAIVLQQIQIRQSPSGNSKSLQQILPGAKIKITSESSVKGWKQVSLDGGQKGWIPTAAIGL is ___
OUTPUT: -0.0262

INPUT: Fill in: soluble fraction (log2) of HMREYEKAVDYVRRMISSGSLNVGDRLPTERELSLELDISRNSTREAMRMLENMGIIVSRHGSGNYISGN is ___
OUTPUT: -0.594

---

ASSAY INFO: soluble fraction after stress (log2 fold change); higher = more stays soluble; pooled small domains, quantitative proteomics
MEASUREMENT SETUP: stress: 50 degC
soluble fraction (log2): recorded values
Keep it simple and answer with nothing but the number.

chain=HMTMQQGTISRLNHSRGFGFLTTPDGEDLFFHRTNVHETPFARLQVGDRVTYDVQVTPRGTRADKVQLNM observed=-0.0328
chain=HMVVKLTQEQDRFIKTFNDKSLAFYYISSWGWGSFLRNGIGGVYEGDKTPFTLDEKEKMLNAIINGYEVI observed=-1.82
chain=HMNPFLELTEREMDVLRLIAIGRNNQEIASELVISEKTVKTHITNIFSKLHFKDRTQAAAYAWQSGIVR observed=-0.74
chain=HMDLFSAVVHHIVGQQISTKAQATIWKRMRDEFGVVDAAAVLGAGVEKLQSFGMTFRKAEYITDFARKIE observed=-2.51
chain=HMTSTSVKYVNSSSGLNVRKGPSTSYDKVTTLVNGTKVTVISTNNGWSKITSGSITGYVSSQYLSSSS observed=-0.147

INPUT: Fill in: soluble fraction (log2) of HMQLNNTDELEKIILKILENNPKQVDQFLAGKQKLLGFFVGQAMRATSGKANPKTVNDLLEKFLSK is ___
OUTPUT: -0.0714

INPUT: Fill in: soluble fraction (log2) of HMSPLQLGNYNTLRITRFTDHGAYLDGGDVGEILMPKTYVLPEMKPGDEVRVFVYLDQEERLVGTTET is ___
OUTPUT: -0.017

INPUT: Fill in: soluble fraction (log2) of HMVEIGENIKKLRKAKRMTQKEVANQLNVTPQTISKWERNISYPDLDMLVKLSQLFHISTDALL is ___
OUTPUT: -0.0765

INPUT: Fill in: soluble fraction (log2) of HMEPQSRTAYRLIEAMIVTHELPPGSRISEASLSAKLGIGRTPIREALQRLSFEGTVKIVPRSGAFVSEI is ___
OUTPUT: -2.76

---

soluble fraction (log2): recorded values
ASSAY INFO: soluble fraction after stress (log2 fold change); higher = more stays soluble; pooled small domains, quantitative proteomics
MEASUREMENT SETUP: stress: 50 degC
Keep it simple and answer with nothing but the number.

Below are worked cases with known answers.
chain=HMHPEQTLEKIVDISAELFAKKGYEQTSIQDILDATGLSKGGLYHHFKSKEEILEAVMQKRVQY attribute_measured="soluble fraction (log2)" observed=0.0883
chain=HMGQLTDKQILLFSGKLAYEPTFASKYSKAGESYDDFIIRISGDLTDPKKIKEYSPYLKELGF attribute_measured="soluble fraction (log2)" observed=-0.161
chain=HMSNRFIQFRQRAIDWLNSDRDFNAGILLLEESGFKPGVVAKLKRHGVNGPEAKKRLKFLINELVKAWA attribute_measured="soluble fraction (log2)" observed=-0.0824
chain=HMAQISDESALYDLVKSVLDANPQSIADYKAGRDRALGFLMGQAMKLSKGKANPPVINKILKEMLDK attribute_measured="soluble fraction (log2)" observed=0.0791
chain=HMAAPPPLSDYRNMQEAEHIRNILLQHHGNVRRAAAALELSRPYLYQKMKQLGINIAELRELSLSHSS attribute_measured="soluble fraction (log2)" observed=-0.559

INPUT: Fill in: soluble fraction (log2) of HMTNKKIILEIFQNSDKPLIVEEISKKMFEKTGKKMILSTIYRNLKNMEDVGILKKIYNEDGSYMYIF is ___
OUTPUT: -0.953

INPUT: Fill in: soluble fraction (log2) of HMDDTVILPIQINGKRRAEISVPKAMPASEVEKLALANEDVLRFLAGQPIKKLIVVPGRIINVV is ___
OUTPUT: 0.179

INPUT: Fill in: soluble fraction (log2) of HMGFAEFWLAYPKKVGKGEAERKWKTLKPDAGAVLSAVKRQSASEQWRKDGGRYIPNPATWLHQRRWE is ___
OUTPUT: -0.0238

INPUT: Fill in: soluble fraction (log2) of HMFERFIFTDEVYIRLKKSGLPQTTLRPLLEIHGKSFDHNEINIILSGLIPNQDFERYAQIIKSHSRF is ___
OUTPUT: -3.82
